Target: IKKε (Homo sapiens (Human), UniProt Q14164)
Sequence (Q14164 whole entry): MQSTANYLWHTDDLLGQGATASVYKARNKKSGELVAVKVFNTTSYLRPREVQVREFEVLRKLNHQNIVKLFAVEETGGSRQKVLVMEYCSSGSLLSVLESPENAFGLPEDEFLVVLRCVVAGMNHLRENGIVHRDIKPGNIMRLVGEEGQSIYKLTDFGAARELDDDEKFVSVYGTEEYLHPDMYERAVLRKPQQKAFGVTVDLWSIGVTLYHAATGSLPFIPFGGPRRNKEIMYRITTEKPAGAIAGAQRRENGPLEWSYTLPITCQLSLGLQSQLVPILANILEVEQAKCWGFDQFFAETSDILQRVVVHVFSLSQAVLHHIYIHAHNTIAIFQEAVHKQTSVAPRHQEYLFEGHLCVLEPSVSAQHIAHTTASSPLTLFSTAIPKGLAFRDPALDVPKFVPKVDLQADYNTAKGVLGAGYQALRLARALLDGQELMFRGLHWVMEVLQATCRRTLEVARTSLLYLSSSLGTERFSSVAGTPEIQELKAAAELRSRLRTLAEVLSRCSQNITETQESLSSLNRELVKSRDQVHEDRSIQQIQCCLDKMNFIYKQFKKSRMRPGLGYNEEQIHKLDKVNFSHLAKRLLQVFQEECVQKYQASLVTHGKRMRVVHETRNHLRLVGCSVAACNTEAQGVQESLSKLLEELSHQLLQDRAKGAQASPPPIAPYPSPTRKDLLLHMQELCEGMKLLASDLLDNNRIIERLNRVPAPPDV
Assay: Lanthascreen TR-FRET kinase inhibition assay, IKKε
Format: biochemical
Conditions: 20 μM ATP (apparent Km), 2 nM kinase, 1 h
pIC50: −log10 of the molar value.
readout.type: pIC50

Worked examples, 4 compounds total:
Prompt: I have this compound here, Cc1nccn1CC(=O)Nc1ccc(Nc2nccc(-c3cnc(N4CC[C@H](F)C4)c(C#N)c3)n2)cn1 [DMX-128] , and I need its recorded pIC50.
Response: > 7.52

Prompt: Record request: pIC50 value, item COCCNCc1ccc(Nc2nccc(-c3ccc(N4CC[C@H](F)C4)c(C#N)n3)n2)cn1 [DMX-157]
Response: > 7.00

Prompt: Query (compound): COCC1CCN(c2ncc(-c3ccnc(Nc4ccc(CN5CCOCC5)nc4)n3)cc2C#N)C1 (centres unmarked) [DMX-160] ; field requested: pIC50
Response: > 7.00

Prompt: For the compound shown here, N#Cc1cc(-c2nc(Nc3ccc(CN4CCOCC4)nc3)ncc2F)cnc1N1CC[C@H](F)C1 [DMX-89] , give the reported pIC50.
Response: > 7.52

Next:
Prompt: So what does the record say about pIC50 for N#Cc1cc(-c2ccnc(Nc3ccc(C(N)=O)cc3)n2)cnc1N1CCCC1 [DMX-37] ?
Response: > 7.82

Prompt: State the recorded pIC50 for this entry: N#Cc1cc(-c2ccnc(Nc3cnn(CCCO)c3)n2)cnc1N1CC[C@H](F)C1 [DMX-52]
Response: > 7.00

Prompt: Query (compound): CN1Cc2ccc(Nc3nccc(-c4cnc(N5CC[C@H](F)C5)c(C#N)c4)n3)cc2C1 [DMX-76] ; field requested: pIC50
Response: > 7.82

Prompt: Requested read-out: pIC50. Entry: CO[C@H]1CCN(Cc2ccc(Nc3nccc(-c4cnc(N5CC[C@H](F)C5)c(C#N)c4)n3)cn2)C1 [DMX-97]
Response: > 7.00

Prompt: Which measured pIC50 value corresponds to Cn1cc(NC(=O)[C@H]2CCCN2c2ncc(-c3ccnc(Nc4cnn(C)c4)n3)cc2C#N)cn1 [DMX-41] ?
Response: > 6.00

Prompt: Form field: reported pIC50 of C[C@H]1COCCN1Cc1ccc(Nc2nccc(-c3cnc(N4CC[C@H](F)C4)c(C#N)c3)n2)cn1 [DMX-79]
Response: > 7.00

Prompt: For N#Cc1cc(-c2ccnc(Nc3ccc(CN4CCOCC4)nc3)n2)cnc1N1CCNC(=O)CC1 [DMX-133] , what is its reported pIC50?
Response: > 6.00

Prompt: Data request, read-out pIC50, for Cn1cc(Nc2nccc(-c3cnc(N4C5CCC4COC5)c(C#N)c3)n2)cn1 [DMX-45]
Response: > 7.00

Prompt: Param item = CC(NCc1ccccc1)C(=O)Nc1ccc(Nc2nccc(-c3cnc(N4CC[C@H](F)C4)c(C#N)c3)n2)cn1 (some centres unmarked) [DMX-55] ; retrieve measured pIC50.
Response: > 7.00

Prompt: Given the compound N#Cc1cc(-c2ccnc(Nc3cnn(C4CCOCC4)c3)n2)cnc1N1CC[C@H](F)C1 [DMX-33] , what is its reported pIC50?
Response: > 7.82

Prompt: Value lookup for pIC50; key = Cc1nccn1Cc1ccc(Nc2nccc(-c3ccc(N4CC[C@H](F)C4)c(C#N)n3)n2)cn1 [DMX-151]
Response: > 7.52

Prompt: // lookup pIC50 for Cn1cc(Nc2nccc(-c3ccc(N4CC[C@H](O)C4)c(C#N)n3)n2)cn1 [DMX-59]
Response: > 7.00

Prompt: Data request, read-out pIC50, for N#Cc1cc(-c2ccnc(Nc3cnn(CCO)c3)n2)cnc1N1C2CCC1COC2 [DMX-46]
Response: > 6.00
